Parameter pIC50, tested on recombinant poly(ADP-ribose) polymerase 1 (PARP1) (Homo sapiens (Human), UniProt P09874), listed per item.
Sequence (P09874 whole entry): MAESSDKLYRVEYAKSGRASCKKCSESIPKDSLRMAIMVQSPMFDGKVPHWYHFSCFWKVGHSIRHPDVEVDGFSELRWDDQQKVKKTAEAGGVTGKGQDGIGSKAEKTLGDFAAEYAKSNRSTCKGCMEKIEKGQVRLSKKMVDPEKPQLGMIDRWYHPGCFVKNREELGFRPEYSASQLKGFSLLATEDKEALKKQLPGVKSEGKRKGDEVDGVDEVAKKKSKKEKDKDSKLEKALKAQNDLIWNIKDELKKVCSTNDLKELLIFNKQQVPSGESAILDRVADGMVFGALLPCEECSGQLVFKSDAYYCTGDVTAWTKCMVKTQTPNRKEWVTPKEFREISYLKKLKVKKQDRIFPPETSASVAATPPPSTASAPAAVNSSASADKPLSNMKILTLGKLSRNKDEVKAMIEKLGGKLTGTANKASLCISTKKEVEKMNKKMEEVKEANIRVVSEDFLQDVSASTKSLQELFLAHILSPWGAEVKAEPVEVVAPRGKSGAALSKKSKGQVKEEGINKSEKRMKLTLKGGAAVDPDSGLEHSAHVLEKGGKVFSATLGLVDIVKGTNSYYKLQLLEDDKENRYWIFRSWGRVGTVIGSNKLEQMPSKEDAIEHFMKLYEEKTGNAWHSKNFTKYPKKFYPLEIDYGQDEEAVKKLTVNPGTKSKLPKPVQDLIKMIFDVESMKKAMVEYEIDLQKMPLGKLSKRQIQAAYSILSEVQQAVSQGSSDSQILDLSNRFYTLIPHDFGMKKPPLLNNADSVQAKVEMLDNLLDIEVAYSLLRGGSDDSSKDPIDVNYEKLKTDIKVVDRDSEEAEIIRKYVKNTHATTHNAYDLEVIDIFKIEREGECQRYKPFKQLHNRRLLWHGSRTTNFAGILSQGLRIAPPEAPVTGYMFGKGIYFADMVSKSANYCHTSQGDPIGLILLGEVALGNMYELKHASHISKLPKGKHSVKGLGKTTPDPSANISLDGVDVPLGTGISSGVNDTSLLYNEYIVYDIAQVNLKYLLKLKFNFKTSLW
Quick note: pIC50 means taking -log10 of the concentration in moles per liter.

Example molecules with recorded pIC50:
{"columns": ["molecule", "target", "propertyLabel", "observed"],
 "data": [
  ["CNC(=O)c1ccc(N2CCN(Cc3ccc4c(c3)[nH]c(=O)c3c[nH]cc34)CC2)c(C)n1 [Example 34]", "recombinant poly(ADP-ribose) polymerase 1 (PARP1) (Homo sapiens (Human), UniProt P09874)", "pIC50", 8.60],
  ["CNC(=O)c1ccc(N2CCN(Cc3ccc4c([nH]c(=O)n5cccc45)c3F)CC2)c(C)n1 [Example 48]", "recombinant poly(ADP-ribose) polymerase 1 (PARP1) (Homo sapiens (Human), UniProt P09874)", "pIC50", 8.75],
  ["CNC(=O)c1ccc(N2CCN(Cc3cc(F)c4c(c3)[nH]c(=O)c3c(F)cnn34)CC2)c(F)n1 [Example 177]", "recombinant poly(ADP-ribose) polymerase 1 (PARP1) (Homo sapiens (Human), UniProt P09874)", "pIC50", 9.49]
]}

GET /values?readout=pIC50&system=recombinant poly(ADP-ribose) polymerase 1 (PARP1) (Homo sapiens (Human), UniProt P09874)&item= CCNC(=O)c1ccc(N2CCN(Cc3ccc4c([nH]c(=O)n5ccnc45)c3F)CC2)c(F)n1 [Example 62]
8.46

GET /values?readout=pIC50&system=recombinant poly(ADP-ribose) polymerase 1 (PARP1) (Homo sapiens (Human), UniProt P09874)&item= CNC(=O)c1ccc(N2CCN(Cc3ccc4c([nH]c(=O)c5cnn(C)c54)c3F)CC2)c(F)n1 [Example 92]
9.36

GET /values?readout=pIC50&system=recombinant poly(ADP-ribose) polymerase 1 (PARP1) (Homo sapiens (Human), UniProt P09874)&item= CNC(=O)c1ccc(N2CCN(Cc3cc(F)c4c(c3)[nH]c(=O)c3cncn34)CC2)c(Cl)n1 [Example 54]
9.28

GET /values?readout=pIC50&system=recombinant poly(ADP-ribose) polymerase 1 (PARP1) (Homo sapiens (Human), UniProt P09874)&item= Cc1cnn2c1c(=O)[nH]c1c(F)c(CN3CCN(c4ccc(C(=O)NC5CC5)nc4F)CC3)ccc12 [Example 126]
9.32

---

- Test system: MDA-MB-436 cells
- experimentDescription: Growth inhibition assay against BRCA mutant human breast cancer MDA-MB-436 cell line (CCK-8)
- Assay type: cell-based
- testSettings: Homo sapiens, MDA-MB-436, […], proliferation of MDA-MB-436 cells, 7 days
This listing pairs molecules with measured pIC50.
Quick note: pIC50 means taking -log10 of the concentration in moles per liter.

Example molecules with recorded pIC50:
{"columns": ["molecule", "pIC50"],
 "data": [
  ["CNC(=O)c1ccc(N2CCN(Cc3ccc4c([nH]c(=O)c5c(C)cnn54)c3F)CC2)c(Cl)n1 [Example 131]", 8.51],
  ["CNC(=O)c1ccc(N2CCN(Cc3ccc4c([nH]c(=O)c5ccoc54)c3F)CC2)cn1 [Example 150]", 7.94],
  ["CNC(=O)c1ccc(N2CCN(Cc3cc(F)c4c(c3)[nH]c(=O)c3cncn34)CC2)c(Cl)n1 [Example 54]", 8.23]
]}

Returns the measured pIC50 for the input molecule. Input: O=C(NC1CC1)c1ccc(N2CCN(Cc3ccc4c([nH]c(=O)c5occc54)c3F)CC2)c(F)n1 [Example 67]
8.18
